Where these numbers come from: patent US9303016B2

system.tested: human full length HSD11β1 (Homo sapiens, UniProt P28845)
Construct: transient expression of human full length HSD11β1 expression vector
Sequence (P28845 whole entry): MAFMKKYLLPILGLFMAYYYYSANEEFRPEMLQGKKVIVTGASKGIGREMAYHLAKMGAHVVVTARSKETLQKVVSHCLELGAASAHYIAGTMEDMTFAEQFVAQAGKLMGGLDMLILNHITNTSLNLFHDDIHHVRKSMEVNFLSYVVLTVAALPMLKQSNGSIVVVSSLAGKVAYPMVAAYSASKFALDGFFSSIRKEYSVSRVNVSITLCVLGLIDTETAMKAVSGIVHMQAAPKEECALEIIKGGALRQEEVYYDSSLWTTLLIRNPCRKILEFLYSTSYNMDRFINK
measurement.notes: In Vitro HSD11β1 Inhibition Assay
protocol.conditions: CHO cells transiently expressing human HSD11β1; 200 nM cortisone+500 uM NADPH overnight; cortisone to cortisol by LC/MS-MS; read-out: 11βHSD1 (IC50)
pIC50: −log10 of the molar value.
Documented pIC50 across a set of molecules

Below, 3 molecules whose answers are already recorded.
O=C(CC(c1ccccc1)c1c[nH]c2ccccc12)N1C2CC3CC1CC(O)(C3)C2 (centres unmarked)    6.82 to 7.00
COc1ccc2[nH]cc(C(C)CC(=O)N3C4CC5CC(C4)CC3C5)c2c1 (centres unmarked)    > 7.00
CC(CC(=O)N1C2CC3CC1CC(O)(C3)C2)c1c[nH]c2ncc(Cl)c(Cl)c12 (centres unmarked)    > 7.00

Data point: CC(C)Oc1cccc2[nH]cc(C(C)CC(=O)N3C4CC5CC3CC(F)(C5)C4)c12 (centres unmarked) [Compound 182] ; pIC50 = 6.70 to 6.82

Data point: "O=C(CCc1c[nH]c2cccc(F)c12)N1C2CC3CC1CC(O)(C3)C2" ; pIC50 = < 6.60

Data point: CC(CC(=O)N1C2CC3CC1CC(C#N)(C3)C2)c1c[nH]c2cccc(Cl)c12 (centres unmarked) ; pIC50 = 6.82 to 7.00

Data point: "Cc1cccc2c1c(CCC(=O)N1C3CC4CC(C3)CC1C4)cn2C" ; pIC50 = < 6.60

Data point: CC(CC(=O)N1C2CC3CC1CC(O)(C3)C2)c1c[nH]c2cc(Cl)c(C3CC3)cc12 (centres unmarked) ; pIC50 = 6.82 to 7.00
